The reader will find Ki measurements below, all made with Cyclin-dependent kinase 9 (Homo sapiens, UniProt P50750).
Sequence (P50750 whole entry): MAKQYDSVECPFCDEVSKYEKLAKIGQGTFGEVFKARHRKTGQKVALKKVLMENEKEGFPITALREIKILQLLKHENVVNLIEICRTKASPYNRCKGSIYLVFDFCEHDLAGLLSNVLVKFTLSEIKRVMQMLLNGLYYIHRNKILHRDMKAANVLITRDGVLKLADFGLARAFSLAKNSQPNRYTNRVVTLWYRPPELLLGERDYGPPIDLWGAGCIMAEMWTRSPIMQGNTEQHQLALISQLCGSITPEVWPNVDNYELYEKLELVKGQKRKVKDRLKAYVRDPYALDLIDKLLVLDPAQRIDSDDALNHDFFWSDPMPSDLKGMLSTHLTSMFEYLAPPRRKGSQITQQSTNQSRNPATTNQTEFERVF
One number for each entry, in nM.

Below are worked cases with known answers.
Qu. Sample CNS(=O)(=O)c1cccc(Nc2nccc(-c3sc(N)nc3C)n2)c1 — what was its Ki?
Ans. 4.3

Qu. Please give the result for CNc1nc(C)c(-c2ccnc(Nc3ccc(C)c(S(=O)(=O)N4CCOCC4)c3)n2)s1 too.
Ans. 6.7

Qu. Please give the result for Cc1ccc(Nc2nccc(-c3sc(N)nc3C)n2)cc1S(=O)(=O)N1CCOCC1 too.
Ans. 8.5

Okay, next one:
Qu. Sample Cc1c(-c2ccnc(Nc3ccc(N4CCNCC4)cc3)n2)sc(=O)n1C — what was its Ki?
Ans. 0.38

* * *

The reader will find Ki measurements below, all made with Cyclin-dependent kinase 9 (Homo sapiens, UniProt P50750).
Remember to follow the number with its unit.

Below are worked cases with known answers.
Qu. Sample CNc1nc(C)c(-c2ccnc(Nc3cccc(S(=O)(=O)NC)c3)n2)s1 — what was its Ki?
Ans. 4.3 nM

Qu. Please give the result for CNc1nc(C)c(-c2ccnc(Nc3cccc(S(N)(=O)=O)c3)n2)s1 too.
Ans. 0.8 nM

Okay, next one:
Qu. Sample CCNc1nc(C)c(-c2ccnc(Nc3cccc(S(C)(=O)=O)c3)n2)s1 — what was its Ki?
Ans. 0.96 nM

* * *

Study Target: Cyclin-dependent kinase 1 (Homo sapiens)
Sequence (P06493 whole entry): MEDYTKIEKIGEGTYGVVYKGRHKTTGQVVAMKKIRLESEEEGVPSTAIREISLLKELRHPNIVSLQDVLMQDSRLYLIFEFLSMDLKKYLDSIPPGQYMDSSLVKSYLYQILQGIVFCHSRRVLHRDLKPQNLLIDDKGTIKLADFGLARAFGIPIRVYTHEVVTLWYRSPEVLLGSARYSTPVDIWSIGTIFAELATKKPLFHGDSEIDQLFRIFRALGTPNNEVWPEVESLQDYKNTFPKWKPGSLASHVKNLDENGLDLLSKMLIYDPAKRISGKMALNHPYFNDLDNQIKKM
Labelling field: enter satisfied if recorded Ki is less than 90 nM. Enter not satisfied if it equals or exceeds that cut-off.

Qu. Consider the molecule Cc1ccc(Nc2nccc(-c3sc(N)nc3C)n2)cc1S(=O)(=O)N1CCOCC1 . Is its Ki strictly less than 90 nM?
Ans. not satisfied

Qu. Please give the result for CNc1nc(C)c(-c2ccnc(Nc3cccc(S(C)(=O)=O)c3)n2)s1 too.
Ans. satisfied

Qu. Please give the result for CCNc1nc(C)c(-c2ccnc(Nc3cccc(S(N)(=O)=O)c3)n2)s1 too.
Ans. not satisfied

Qu. Please give the result for CNc1nc(C)c(-c2ccnc(Nc3cccc(S(=O)(=O)NC)c3)n2)s1 too.
Ans. not satisfied

Qu. Please give the result for CNc1nc(C)c(-c2ccnc(Nc3ccc(C)c(S(=O)(=O)N4CCOCC4)c3)n2)s1 too.
Ans. not satisfied

Qu. Please give the result for CNc1nc(C)c(-c2ccnc(Nc3cccc(S(N)(=O)=O)c3)n2)s1 too.
Ans. satisfied

Qu. Please give the result for Cc1ccc(Nc2nccc(-c3sc(=O)n(C)c3C)n2)cc1[N+](=O)[O-] too.
Ans. satisfied

Qu. Please give the result for Cc1c(-c2ccnc(Nc3ccc(N4CCNCC4)cc3)n2)sc(=O)n1C too.
Ans. not satisfied

Qu. Please give the result for CCNS(=O)(=O)c1cccc(Nc2nccc(-c3sc(N)nc3C)n2)c1 too.
Ans. not satisfied

Okay, next one:
Qu. Consider the molecule CNS(=O)(=O)c1cccc(Nc2nccc(-c3sc(N)nc3C)n2)c1 . Is its Ki strictly less than 90 nM?
Ans. not satisfied

* * *

For each record, write down the corresponding Ki.
Study Target: Cyclin-dependent kinase 9 (Homo sapiens, UniProt P50750)
Answers are plain numbers, in nM.

Below are worked cases with known answers.
Qu. Sample CCNS(=O)(=O)c1cccc(Nc2nccc(-c3sc(N)nc3C)n2)c1 — what was its Ki?
Ans. 5.9

Qu. Please give the result for Cc1ccc(Nc2nccc(-c3sc(=O)n(C)c3C)n2)cc1[N+](=O)[O-] too.
Ans. 5.9

Qu. Please give the result for CNc1nc(C)c(-c2ccnc(Nc3cccc(S(C)(=O)=O)c3)n2)s1 too.
Ans. 0.29

Okay, next one:
Qu. Sample CCNc1nc(C)c(-c2ccnc(Nc3cccc(S(N)(=O)=O)c3)n2)s1 — what was its Ki?
Ans. 4.5
